Every entry's value here was drawn from the METLIN SMRT retention time set (Domingo-Almenara et al. 2019).

measurement.description: gradient 5% acetonitrile 3 min, to 50% in 2 min, to 85% in 15 min, held 3 min, 100 µL/min
run.conditions: column: Zorbax Extend-C18 2.1 x 50 mm; eluents: water / acetonitrile, 0.1% formic acid
quantity: RP-LC retention time (s)

Examples with their reported RP-LC retention time follow.
molecule	RP-LC retention time [s]
CCc1cc(=O)n(CC(=O)Nc2cccc(C(C)=O)c2)c(N2CCOCC2)n1	677
O=C(Nc1ccc2c(N3CCCCC3)ncnc2c1)c1cncc(Br)c1	664

(P) COc1cccc(-c2cc3n(n2)C(NC2CC2)CNC3=O)c1 (centres undefined)
(Q) COc1ccc(NC(=O)c2cc(C)n3nc(-c4ccsc4)cc3n2)cc1
Which of the two gives a bigger number for RP-LC retention time: P or Q ? Please reply using the label of the selected record.
Q
(Q: 1120 s, P: 562 s)

====

measurement.description: gradient 5% acetonitrile 3 min, to 50% in 2 min, to 85% in 15 min, held 3 min, 100 µL/min
run.conditions: column: Zorbax Extend-C18 2.1 x 50 mm; eluents: water / acetonitrile, 0.1% formic acid
quantity: RP-LC retention time (s)

Consider the worked cases shown below.
compound	RP-LC retention time [s]
CCCCCOC(=O)Nc1nc(=O)n(C2OC(C)C(O)C2O)cc1F (stereo not given)	874
CN1c2ccc(F)cc2C(=O)NC12CCN(C(=O)c1cccc(F)c1)CC2	751
CN(C)C(=O)OC1=C(c2ccccc2)Sc2ccccc2-n2cccc21	1250

(1) Cc1cccc(-c2nnc(-c3ccc(Cl)c(S(=O)(=O)N4CCOCC4)c3)o2)c1
(2) CCc1ccccc1NC(=O)N1CCc2nc[nH]c2C1
Pick one, 1 or 2 : lowest reported RP-LC retention time. Lab note: record the label of whichever item you select.
2
(2: 575 s, 1: 1020 s)

====

measurement.description: gradient 5% acetonitrile 3 min, to 50% in 2 min, to 85% in 15 min, held 3 min, 100 µL/min
run.conditions: column: Zorbax Extend-C18 2.1 x 50 mm; eluents: water / acetonitrile, 0.1% formic acid
quantity: RP-LC retention time (s)

Worked examples follow.
compound	quantity	units	result.number
O=C1CCC(CCNS(=O)(=O)c2cc(Cl)ccc2Cl)CCN1CC1CC1 (stereo not drawn)	RP-LC retention time	s	897
Nc1cc(C2CCN(S(=O)(=O)Cc3cccc(F)c3)CC2)no1	RP-LC retention time	s	742

(1) CCN(CC)c1nc2cc(C(=O)OC)ccc2c(=O)n1Cc1ccc(C)cc1
(2) C[C@@H](NC(=O)c1ccccc1Br)C(=O)NCc1cscn1
Param metric = RP-LC retention time; output whichever of 1 , 2 has the minimum value. Please identify the chosen entry by its label.
2
(2: 635 s, 1: 1310 s)

(a) CCn1cnc(S(=O)(=O)N2CCC(C(=O)NCc3ccc(N(C)C)cc3)CC2)c1
(b) Cc1ccc(NC(=O)N2C[C@@H](F)C[C@H]2C(=O)N2CCc3ccccc3C2)cc1F
Lab note: check whether a or b has the lower measured RP-LC retention time. Your choice should be expressed through its label.
a

(a) O=C(NCc1csc(C2CCCN(C(=O)c3ccccc3F)C2)n1)C1CCC1 (stereo not drawn)
(b) Cc1ccc(-c2cc(-c3cc(-c4ccc(C)cc4C)n[nH]3)[nH]n2)c(C)c1
Lowest RP-LC retention time? choose a or b # reply format: chosen label
a

(A) O=C(C1CCN(c2nc3cccnc3s2)CC1)N1CCCCC1
(B) Cc1ccc(-c2nc(Nc3ccc(Br)cc3)sc2CC(=O)O)c(C)c1
Between A and B , which one has the lower reported RP-LC retention time value? Indicate your choice by writing its label.
A
